# assay_name: Pharmacokinetic parameters in male Sprague Dawley rats (intravenous and oral administration)
# Format: in vivo
# measurement_setup: intravenous administration, rat plasma; dose per compound (mg/kg)
Structures can show the parent of a compound that is named as a salt.
endpoint_name: Vdss (L/kg)

>>> df
                                   compound  endpoint_name  unit_abbreviation  value_observed
0  CC(C)c1cc(Cl)cc(C(C)C)c1NC(=O)NS(=O)(=O)c1cc(C(=O)N(C)C)n(C)n1           Vdss               L/kg           10.55

I = CC(C)c1cc(F)cc(C(C)C)c1NC(=O)NS(=O)(=O)c1cc(C(=O)N(C)C)n(C)n1 [Example 160, sodium salt]
II = CCN(C)C(=O)c1cc(S(=O)(=O)NC(=O)Nc2c3c(cc4c2CCC4)CCC3)nn1C
III = CC(C)c1cc(F)cc(C(C)C)c1NC(=O)NS(=O)(=O)c1cc(C(=O)N2CCC2)n(C)n1 [Example 145, sodium salt]
Ask | List items by Vdss in falling order. Ranked list of labels, please, in the requested order.
Reply | III, I, II

1 = CC(C)c1cc(F)cc(-c2cccnc2)c1NC(=O)NS(=O)(=O)c1cc(C(=O)N(C)C)n(C)n1 [Example 141, sodium salt]
2 = CCn1nc(S(=O)(=O)NC(=O)Nc2c(-c3ccnc(OC)c3)ccc3c2CCC3)cc1CN(C)C
Ask | Larger number for Vdss: 1 , or 2 ? Answer = label.
Reply | 1
(1: 3.95 L/kg, 2: 1.23 L/kg)

a = Cc1cc(-c2cc(F)cc(C(C)C)c2NC(=O)NS(=O)(=O)c2cc(CN(C)C)n(C)n2)n(C)n1
b = CC(C)n1nc(S(=O)(=O)NC(=O)Nc2c3c(cc4c2CCC4)CCC3)cc1C(=O)N1CCC1 [Example 131, ammonium salt]
Ask | Consider entries a and b . Which has the numerically lower Vdss? Answer = label.
Reply | a
(a: 0.98 L/kg, b: 1.66 L/kg)

---

# system_under_test: NLRP3 (Homo sapiens, UniProt Q96P20)
# Sequence (Q96P20 whole entry): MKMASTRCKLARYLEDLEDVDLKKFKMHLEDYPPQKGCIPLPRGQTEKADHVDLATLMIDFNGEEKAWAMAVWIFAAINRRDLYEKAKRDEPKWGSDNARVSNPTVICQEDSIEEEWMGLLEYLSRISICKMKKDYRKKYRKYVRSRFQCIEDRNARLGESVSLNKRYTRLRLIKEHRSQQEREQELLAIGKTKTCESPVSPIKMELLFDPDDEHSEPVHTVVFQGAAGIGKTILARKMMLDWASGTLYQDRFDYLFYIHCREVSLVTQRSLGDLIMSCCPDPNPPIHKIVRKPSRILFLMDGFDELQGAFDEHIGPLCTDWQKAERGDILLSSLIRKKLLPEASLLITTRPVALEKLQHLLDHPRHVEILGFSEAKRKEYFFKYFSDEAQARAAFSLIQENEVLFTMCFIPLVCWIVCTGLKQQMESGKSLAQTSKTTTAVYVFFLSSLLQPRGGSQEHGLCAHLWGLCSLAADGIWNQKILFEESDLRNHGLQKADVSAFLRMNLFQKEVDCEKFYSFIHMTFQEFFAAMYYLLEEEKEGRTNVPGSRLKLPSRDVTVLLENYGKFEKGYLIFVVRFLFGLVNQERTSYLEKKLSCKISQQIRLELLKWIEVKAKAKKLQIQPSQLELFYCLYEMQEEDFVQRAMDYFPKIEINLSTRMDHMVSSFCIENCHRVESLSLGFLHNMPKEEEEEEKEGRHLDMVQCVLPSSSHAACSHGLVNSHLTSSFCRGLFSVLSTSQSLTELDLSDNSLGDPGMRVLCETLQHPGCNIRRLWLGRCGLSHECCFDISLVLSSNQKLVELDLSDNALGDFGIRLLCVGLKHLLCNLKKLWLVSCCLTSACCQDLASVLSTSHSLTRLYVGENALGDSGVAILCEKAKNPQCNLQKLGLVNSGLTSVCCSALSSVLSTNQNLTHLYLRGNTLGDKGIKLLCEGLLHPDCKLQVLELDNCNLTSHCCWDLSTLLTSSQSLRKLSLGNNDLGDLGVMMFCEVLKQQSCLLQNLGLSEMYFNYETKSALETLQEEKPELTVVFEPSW
# assay_name: THP-1 cells pyroptosis assay
# Assay type: cell-based
# Set-up: Seed THP-1 cells (25,000 cells/well) containing 1.0 μg/ml LPS; host or cells: THP-1 cells, LPS-primed, nigericin-stimulated
# measurement_setup: THP-1 cells, 1.0 μg/ml LPS, compound 3 hrs, nigericin 5 μM 1 hr, resazurin readout; read-out: THP IC50
pIC50: −log10 of the molar value. Counter-ions that a name gives are not always drawn.
Form field: pIC50 (one value per entry).

Check out these entries, answers already filled in.
In [3]: df
Out[3]:
                                   compound  value_observed
0  O=C(Nc1c2c(cc3c1CCC3)CCC2)NS(=O)(=O)c1ccn(-c2nccs2)n1 [Example 120, sodium salt]          > 5.59
1  CC(C)c1ccc(-c2cnn(C)c2)cc1NC(=O)NS(=O)(=O)c1cc(C(=O)N(C)C)n(C)n1 [Example 136, sodium salt]          > 5.59
2  CC(C)c1ccc(C(C)C)c(NC(=O)NS(=O)(=O)c2cc(C(=O)N(C)C)n(C)n2)c1 [Example 144, sodium salt]          > 6.19
3  CNCCn1ccc(S(=O)(=O)NC(=O)Nc2c3c(cc4c2CCC4)CCC3)n1 [Example 13]          > 6.19

Ask | pIC50 lookup needed for CN(C(=O)c1cc(S(=O)(=O)NC(=O)Nc2c3c(cc4c2CCC4)CCC3)nn1C)C1CC1 [Example 152] , thanks.
Reply | > 6.80

Ask | pIC50 lookup needed for CC(C)(C#N)n1ccc(S(=O)(=O)NC(=O)Nc2c(-c3ccnc(OC(F)F)c3)ccc3c2CCO3)n1 [Example 189] , thanks.
Reply | > 6.80

Ask | pIC50 lookup needed for CC(C)c1cc(F)cc(-c2cccnc2)c1NC(=O)NS(=O)(=O)c1ccn(CCN(C)C)n1 [Example 30] , thanks.
Reply | > 6.19

---

# assay_name: Pharmacokinetic parameters in male Sprague Dawley rats (intravenous and oral administration)
# Assay type: in vivo
# measurement_setup: male, Sprague Dawley, plasma; oral administration, rat; dose per compound (mg/kg); read-out: Bioavailability
endpoint_name: bioavailability (%)

1 = CN(C)CC(C)(C)n1ccc(S(=O)(=O)NC(=O)Nc2c3c(cc4c2CCC4)CCC3)n1 [Example 17]
2 = CN(C)CCn1ccc(S(=O)(=O)NC(=O)Nc2c3c(cc4c2CCC4)CCC3)n1 [Example 7]
Ask | Consider entries 1 and 2 . Which has the numerically lower bioavailability? Answer = label.
Reply | 1

---

# system_under_test: NLRP3 (Homo sapiens, UniProt Q96P20)
# assay_name: Human whole blood IL1β release assay
# Format: cell-based
# Design: Human whole blood in Li-heparin tubes was obtained from healthy donors; from tissue; host or cells: human whole blood from healthy donors, LPS-primed, nigericin-stimulated
# measurement_setup: human whole blood, 1 μg/ml LPS, compound 3 hrs, nigericin 10 μM 1 hr, IL-1β AlphaLisa; read-out: HWB IC50
Structures can show the parent of a compound that is named as a salt.
Form field: IC50 (one value per entry).

Check out these entries, answers already filled in.
In [3]: df
Out[3]:
                                   molecule  value_observed
0  CCN(CC)C(=O)c1cc(S(=O)(=O)NC(=O)Nc2c3c(cc4c2CCC4)CCC3)nn1C       < 1600 nM
1  CNCC(C)(C)n1ccc(S(=O)(=O)NC(=O)Nc2c3c(cc4c2CCC4)CCC3)n1 [Example 204, sodium salt]        < 800 nM
2  CN1CC(n2ccc(S(=O)(=O)NC(=O)Nc3c4c(cc5c3CCC5)CCC4)n2)C1       < 1600 nM

Turning now to a further record.
Ask | IC50 lookup needed for "CN(C)CC(C)(C)n1ccc(S(=O)(=O)NC(=O)Nc2c(-c3cccnc3)ccc3c2CCC3)n1" , thanks.
Reply | < 400 nM

---

# assay_name: Pharmacokinetic parameters in male Sprague Dawley rats (intravenous and oral administration)
# Assay type: in vivo
# measurement_setup: male, Sprague Dawley; intravenous administration, rat plasma; dose per compound (mg/kg)
endpoint_name: half-life (h)

In [3]: df
Out[3]:
                                item_smiles  value_observed
0  CN(C)CCn1ccc(S(=O)(=O)NC(=O)Nc2c3c(cc4c2CCC4)CCC3)n1             3.7
1  CN(C)CC(C)(C)n1ccc(S(=O)(=O)NC(=O)Nc2c3c(cc4c2CCC4)CCC3)n1             2.5
2  CN1CC[C@H]1Cn1ccc(S(=O)(=O)NC(=O)Nc2c3c(cc4c2CCC4)CCC3)n1             2.9

---

Form field: IC50 (one value per entry).
# system_under_test: NLRP3 (Homo sapiens, UniProt Q96P20)
# assay_name: Human whole blood IL1β release assay
# Assay type: cell-based
# Parameters: Human whole blood in Li-heparin tubes was obtained from healthy donors; from tissue; host or cells: human whole blood from healthy donors, LPS-primed, nigericin-stimulated
# measurement_setup: human whole blood, 1 μg/ml LPS, compound 3 hrs, nigericin 10 μM 1 hr, IL-1β AlphaLisa; read-out: HWB IC50
# Protocol: Human Whole Blood IL1β Release Assay For systemic delivery, the ability to inhibit NLRP3 when the compounds are present within the bloodstream is of great importance. […] Human whole blood in Li-heparin tubes was obtained from healthy donors from a volunteer donor panel. • 1. […] IL-1β was measured according to the manufacturer protocol (Perkin Elmer-AlphaLisa IL-1 Kit AL220F-5000) • 8. […]
Structures can show the parent of a compound that is named as a salt.

                                   compound  endpoint_name  value_observed
0  COc1cc(-c2ccc3c(c2NC(=O)NS(=O)(=O)c2ccn(C(C)(C)C#N)n2)CCC3)ccn1 [Example 195, sodium salt]           IC50        < 400 nM
1  CN1CCC(n2ccc(S(=O)(=O)NC(=O)Nc3c4c(cc5c3CCC5)CCC4)n2)C1 (stereo not drawn) [Example 205, sodium salt]           IC50       < 1600 nM
2  CC(C)c1cccc(C(C)C)c1NC(=O)NS(=O)(=O)c1cc(C(=O)N2CC(F)C2)n(C)n1 [Example 139, sodium salt]           IC50       < 1600 nM
3  COc1cc(-c2ccc3c(c2NC(=O)NS(=O)(=O)c2ccn(C(C)(C)C#N)n2)CCO3)ccn1           IC50        < 400 nM
4  COCCN(C)Cc1cc(S(=O)(=O)NC(=O)Nc2c3c(cc4c2CCC4)CCC3)nn1C [Example 126, sodium salt]           IC50       < 3200 nM
5  CNC(=O)c1cc(S(=O)(=O)NC(=O)Nc2c(C(C)C)cccc2C(C)C)nn1C           IC50        < 800 nM
6  CC(C)n1nc(S(=O)(=O)NC(=O)Nc2c3c(cc4c2CCC4)CCC3)cc1C(=O)N1CCC1 [Example 131, ammonium salt]           IC50       < 1600 nM
7  CC(C)c1cc(F)cc(C(C)C)c1NC(=O)NS(=O)(=O)c1cc(C(=O)N2CCC2)n(C)n1 [Example 145, sodium salt]           IC50        < 400 nM
8  O=C(Nc1c2c(cc3c1CCC3)CCC2)NS(=O)(=O)c1ccn(C2CNC2)n1           IC50       < 3200 nM
9  CN(C)C1(c2cc(S(=O)(=O)NC(=O)Nc3c4c(cc5c3CCC5)CCC4)nn2C)COC1           IC50       < 1600 nM

Turning now to a further record.
Ask | IC50 lookup needed for "CCN(C)C(=O)c1cc(S(=O)(=O)NC(=O)Nc2c3c(cc4c2CCC4)CCC3)nn1C" , thanks.
Reply | < 800 nM
